TEST SUMMARY: Metabolic stability screen, human liver microsomes
Format: in vitro ADME
SETTINGS: 10 μM substrate, 30 min, 37° C., 1 mM NADPH
Returns: string. Value is Condition met if measured HLM % turnover is below 70%, and Condition not met if it is greater than or equal to it.

COMPOUND | ASSIGNED LABEL
CC(C)(C(=O)NC1C2CC3CC1CC(C(=O)O)(C3)C2)N1CCN(c2ccc(C(F)(F)F)cn2)CC1 (centres unmarked) [Example 5] | Condition met
CC(C)(C(=O)NC1C2CC3CC(C2)CC1C3)c1ccc(Cl)cc1 (centres unmarked) [Example 2] | Condition not met
O=C(NC1C2CC3CC(C2)CC1C3)C1(c2ccccc2)CC1 (centres unmarked) [Example 3] | Condition met
CC(C)(C(=O)NC1C2CC3CC(C2)CC1C3)c1ccccc1 (centres unmarked) [Example 1] | Condition not met

The origin of these recorded values is patent US20060148871A1.
